Read-out: Intercellular Adhesion Molecule 1 (ICAM1), ICAM1 (gene 3383)
EXPERIMENT NOTES: LTEA_HepaRG_ICAM1: Life Technologies and Expression Analysis (LTEA) Assay for Intercellular Adhesion Molecule 1 (ICAM1) using HepaRG (AID 2283507)
CONDITION CONTEXT: mRNA level, 48 h; actives raise or lower the signal
Activity calls are given as the source filed them. The calls were made as follows: active = hit-call score of the fitted dose curve at least 0.9, where 1 is the maximum; inactive = score below 0.9.
Outcome codes: y (active), n (inactive)

| GIVEN SMILES | LABEL VALUE |
| --- | --- |
| CCCCCCOC(=O)c1ccccc1C(=O)OCCCCCC | n |
| Cc1ccccc1O | n |
| CN(C)CCO | n |
| O=C(NC(=O)c1cc(F)c(F)cc1Cl)Nc1cc(F)ccc1N1CCC(C(=O)O)CC1 | n |
| Cc1cc2c3c(c1)C(c1ccccc1)=N[C@@H](NC(=O)c1ccncc1)C(=O)N3CC2 | n |
| O=C(O)C(F)(F)C(F)(F)C(F)(F)C(F)(F)C(F)(F)C(F)(F)C(F)(F)C(F)(F)C(F)(F)F | y |
| O=S(=O)(O)C(F)(F)C(F)(F)C(F)(F)C(F)(F)F | n |
| Oc1ccc(Cl)cc1Cl | n |
| Nn1cnnc1 | n |

###

EXPERIMENT NOTES: APR_HepG2_P-H2AX_72hr: Apredica 72-hour HepG2 Assay for H2AX Phosphorylation (AID 2282916);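 also: phospho-histone H2A.x immunostain intensity per cell marking DNA damage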
CONDITION CONTEXT: imaging, actives raise or lower the signal
Active and inactive are the calls of the source. The calls were made as follows: active = hit-call score of the fitted dose curve at least 0.9, where 1 is the maximum; inactive = score below 0.9.
Outcome codes: TRUE (active), FALSE (inactive)

| COMPOUND | LABEL VALUE |
| --- | --- |
| C=CC(N)=O | FALSE |
| CCC(C)(CC)c1cc(NC(=O)c2c(OC)cccc2OC)on1 | FALSE |
| Oc1ccc(C(c2ccc(O)cc2)(C(F)(F)F)C(F)(F)F)cc1 | FALSE |
| O=C(O)C(F)(F)C(F)(F)C(F)(F)C(F)(F)C(F)(F)F | FALSE |
| CCCCCCCCCC[N+](C)(C)CCCCCCCCCC | TRUE |
| O=NN(c1ccccc1)c1ccccc1 | FALSE |
| CCCN(CCC)N=O | FALSE |
| CC1=C2C[C@H]3[C@@H](CC=C4C[C@@H](O)CC[C@@]43C)[C@@H]2CC[C@]12O[C@@H]1C[C@H](C)CN[C@H]1[C@H]2C | TRUE |
| Cc1cccc(C)c1N | FALSE |
| ClC1=C(Cl)[C@]2(Cl)[C@@H]3[C@@H]4C[C@@H]([C@H]5O[C@@H]45)[C@@H]3[C@@]1(Cl)C2(Cl)Cl | TRUE |
| Cc1cc2c3c(c1)C(c1ccccc1)=N[C@@H](NC(=O)c1ccncc1)C(=O)N3CC2 | FALSE |
| Cc1ccc(O)c(C)c1 | FALSE |
| CO/C=C(/C(=O)OC)c1ccccc1COc1cccc(C(F)(F)F)n1 | TRUE |
| Cc1ccccc1O | FALSE |
| O=C(N[C@H]1CN2CCC1CC2)c1cc2ccoc2cn1 | FALSE |
| CC(C)C(=O)OCC(C)(C)C(OC(=O)C(C)C)C(C)C (stereo not drawn) | FALSE |
| NS(=O)(=O)C(F)(F)C(F)(F)C(F)(F)C(F)(F)C(F)(F)C(F)(F)C(F)(F)C(F)(F)F | TRUE |
| CCNc1nc(NC(C)C)nc(SC)n1 | FALSE |
| Oc1c(Cl)c(Cl)c(Cl)c(Cl)c1Cl | FALSE |
| Nc1ccc(-c2ccc(N)cc2)cc1 | TRUE |
| CC#Cc1cc(C)nc(Nc2ccccc2)n1 | FALSE |
| Clc1ccc(C(c2ccccc2Cl)C(Cl)(Cl)Cl)cc1 (stereo not drawn) | FALSE |
| Cc1cccc([N+](=O)[O-])c1 | FALSE |

###

Read-out: Cyclin D1 (CCND1), CCND1 (gene 595)
EXPERIMENT NOTES: LTEA_HepaRG_CCND1: Life Technologies and Expression Analysis (LTEA) Assay for Cyclin D1 (CCND1) using HepaRG (AID 2283451)
CONDITION CONTEXT: mRNA level, 48 h; actives raise or lower the signal
Activity calls are given as the source filed them. How the source made its calls: active means hit-call score of the fitted dose curve at least 0.9, where 1 is the maximum; inactive means score below 0.9.
Outcome codes: true (1) for active, false (0) for inactive

| GIVEN SMILES | LABEL VALUE |
| --- | --- |
| c1ccc(-c2ccccc2)cc1 | false (0) |
| CC(C)(O)C(=O)Nc1ccc([N+](=O)[O-])c(C(F)(F)F)c1 | false (0) |
| O=S(=O)(O)C(F)(F)C(F)(F)C(F)(F)C(F)(F)F | false (0) |
| CO/C=C(/C(=O)OC)c1ccccc1COc1cccc(C(F)(F)F)n1 | true (1) |
| CCOCCOC(C)=O | false (0) |
| CCC(C)(c1ccc(O)cc1)c1ccc(O)cc1 | false (0) |

###

Read-out: DNA damage-inducible transcript 3 (DDIT3), DDIT3 (gene 1649)
EXPERIMENT NOTES: LTEA_HepaRG_DDIT3: Life Technologies and Expression Analysis (LTEA) Assay for DNA damage-inducible transcript 3 (DDIT3) using HepaRG (AID 2283488)
CONDITION CONTEXT: mRNA level, 48 h; actives raise or lower the signal
The source made the active and inactive calls. How the source made its calls: active means hit-call score of the fitted dose curve at least 0.9, where 1 is the maximum; inactive means score below 0.9.
MEASURE NAME: AC50

| MOLECULE | RESULT |
| --- | --- |
| CN(C)CCO | inactive |
| c1ccc(-c2ccccc2)cc1 | inactive |
| Cc1ccccc1O | inactive |
| O=C(O)C(F)(F)C(F)(F)C(F)(F)C(F)(F)C(F)(F)C(F)(F)C(F)(F)C(F)(F)C(F)(F)F | 17 µM (active) |
| O=C(NC(=O)c1cc(F)c(F)cc1Cl)Nc1cc(F)ccc1N1CCC(C(=O)O)CC1 | inactive |
| CCSC(=O)N(CC)C1CCCCC1 | inactive |
| Cc1ccccc1[N+](=O)[O-] | inactive |
| CCC(C)c1cc([N+](=O)[O-])cc([N+](=O)[O-])c1O (stereo not given) | 5.95 µM (active) |
| CCCCCCCCOC(=O)c1ccccc1C(=O)OCCCCCCCC | inactive |
| ClC(Cl)=C(c1ccc(Cl)cc1)c1ccc(Cl)cc1 | inactive |
| Cc1cccc([N+](=O)[O-])c1 | inactive |
| Clc1ccc(C(Cl)(Cl)Cl)cc1 | inactive |
| O=C(N[C@H]1CN2CCC1CC2)c1cc2ccoc2cn1 | inactive |
| Cc1ccc(O)c(C)c1 | inactive |
| CC(c1ccc(O)cc1)(c1ccc(O)cc1)c1ccc(O)cc1 | inactive |
| Cc1cccc(C)c1N | inactive |
| O=C(O)C(F)(F)C(F)(F)C(F)(F)C(F)(F)C(F)(F)F | inactive |
| CC(C)(c1ccccc1)c1ccc(O)cc1 | inactive |
| NS(=O)(=O)C(F)(F)C(F)(F)C(F)(F)C(F)(F)C(F)(F)C(F)(F)C(F)(F)C(F)(F)F | 28.9 µM (active) |
| CCCCCCCCCc1ccc(O)cc1 | inactive |
| CCOCCOC(C)=O | inactive |
| CN(C)c1nc(=O)n(C2CCCCC2)c(=O)n1C | inactive |
| O=C(O)C(F)(F)C(F)(F)C(F)(F)C(F)(F)C(F)(F)C(F)(F)C(F)(F)C(F)(F)F | 77.9 µM (active) |
| ClC1=C(Cl)[C@]2(Cl)[C@@H]3[C@@H]4C[C@@H]([C@H]5O[C@@H]45)[C@@H]3[C@@]1(Cl)C2(Cl)Cl | 62.8 µM (active) |
| O=C(NC(=O)c1c(F)cccc1F)Nc1cc(Cl)c(OC(F)(F)C(F)F)c(Cl)c1 | inactive |
| N#Cc1ccc(N(CC(N)=O)CC(F)(F)F)cc1C(F)(F)F | inactive |
| Nn1cnnc1 | inactive |
| CCNc1nc(NC(C)C)nc(SC)n1 | inactive |
| Nc1ccc(-c2ccc(N)cc2)cc1 | inactive |
| CCCCCCOC(=O)c1ccccc1C(=O)OCCCCCC | inactive |

###

Read-out: Tumor necrosis factor receptor 1 (TNFRSF1A), TNFRSF1A (gene 7132)
EXPERIMENT NOTES: LTEA_HepaRG_TNFRSF1A: Life Technologies and Expression Analysis (LTEA) Assay for Tumor necrosis factor receptor 1 (TNFRSF1A) using HepaRG (AID 2283535)
CONDITION CONTEXT: mRNA level, 48 h; actives raise or lower the signal
Activity calls are given as the source filed them. How the source made its calls: active means hit-call score of the fitted dose curve at least 0.9, where 1 is the maximum; inactive means score below 0.9.
Outcome codes: label 1 = active, label 0 = inactive

| GIVEN SMILES | LABEL VALUE |
| --- | --- |
| CN(C)CCO | label 0 |
| Cc1ccccc1[N+](=O)[O-] | label 0 |
| Cc1cc(O)ccc1Cl | label 0 |
| NS(=O)(=O)C(F)(F)C(F)(F)C(F)(F)C(F)(F)C(F)(F)C(F)(F)C(F)(F)C(F)(F)F | label 1 |
| Clc1ccc(C(Cl)(Cl)Cl)cc1 | label 0 |
| ClC1=C(Cl)[C@]2(Cl)[C@@H]3[C@H]4C[C@H]([C@@H]5O[C@H]45)[C@@H]3[C@@]1(Cl)C2(Cl)Cl | label 0 |
| Oc1ccc(Cl)cc1Cl | label 0 |
| c1ccc(-c2ccccc2)cc1 | label 0 |
| CCCCCCCCCc1ccc(O)cc1 | label 0 |
| C[C@]12CCC(=O)C=C1CC[C@@H]1[C@@H]2CC[C@@]2(C)[C@H]1CC[C@]2(C)O | label 1 |
| O=C(N[C@H]1CN2CCC1CC2)c1cc2ccoc2cn1 | label 0 |
| Cc1ccccc1CO[C@@H]1C[C@@]2(C(C)C)CC[C@]1(C)O2 | label 0 |
| O=C(O)C(F)(F)C(F)(F)C(F)(F)C(F)(F)C(F)(F)C(F)(F)C(F)(F)C(F)(F)F | label 0 |
| CCNc1nc(NC(C)C)nc(SC)n1 | label 0 |
